target_or_system: 5-HT2A (Homo sapiens (Human))
assay_remarks: Radioligand binding assay, [^3H]5-HT competition, 5-HT2A
test_context: [^3H]5-HT radioligand, membranes of HEK293 cells expressing recombinant 5-HT2A; Ki from IC50 by Cheng-Prusoff; read-out: 5-HT2A serotonin binding Ki value
// NB: equality with 50 nM counts as N; only Ki strictly below is Y

Does the reported Ki of Cc1ncnc(C)c1-c1cc(NC(=O)COC2CCC2)ccc1OCCN1CCCC1 [Compound 242] stay below 50 nM?
Y

Lab note: confirm whether the reported Ki for this compound is below 50 nM, equality not counting. compound: Cc1ncoc1CC(=O)Nc1ccc(OCCN2CCCC2)c(-c2c(C)ncnc2C)c1 [Compound 226]
N

A record lists Cc1ncoc1C(=O)Nc1ccc(O[C@@H]2CCCNC2)c(-c2c(C)ncnc2C)c1 [Compound 415] . Is its Ki below 50 nM?
N

Strictly below 50 nM in Ki? Cc1ncnc(C)c1-c1cc(NC(=O)c2ccccc2)ccc1OCCN1CCCC1 [Compound 271]
Y

Record COC(C)(C)C(=O)Nc1ccc(OCCN2CCCC2)c(-c2c(C)ncnc2C)c1 [Compound 284] : is its Ki strictly below 50 nM?
N

Consider Cc1ncnc(C)c1-c1cc(NC(=O)c2ccc(F)cc2)ccc1OCCN1CCC1 [Compound 309] . Does its Ki lie strictly below 50 nM?
Y

Report whether reported Ki is lower than 50 nM (strictly) for Cc1ncnc(C)c1-c1cc(NC(=O)c2ccnn2C)ccc1OCCN1CCC1 [Compound 304]
Y

Decide: Ki of Cc1ccc(C(=O)Nc2ccc(OCCN3CCC3)c(-c3c(C)ncnc3C)c2)cc1 [Compound 323] strictly below 50 nM?
Y

Quick check: does Cc1ncnc(C)c1-c1cc(NC(=O)Cc2cnco2)ccc1OCCN1CCCC1 [Compound 260] have Ki under 50 nM?
N

Lab note: Ki threshold 50 nM. Does this compound come in strictly under it? Cc1ncnc(C)c1-c1cc(NC(=O)C2CC2)ccc1OCCN1CC(F)C1 [Compound 386]
Y

Dear reviewer, please state whether COc1cccc(CC(=O)Nc2ccc(OCCN3CCC3)c(-c3c(C)ncnc3C)c2)c1 [Compound 311] has Ki strictly beneath 50 nM.
Y

Strictly below 50 nM: is that where Ki of Cc1ncnc(C)c1-c1cc(NC(=O)c2ccnn2C)ccc1OC1CNC1 [Compound 399] sits?
Y

Could you please tell me whether Ki recorded for Cc1cccc(C(=O)Nc2ccc(OCCN3CCCC3)c(-c3c(C)ncnc3C)c2)c1 [Compound 300] is less than 50 nM?
Y

Does the reported Ki of the following compound sit strictly below 50 nM? COC1(C(=O)Nc2ccc(OC[C@H]3CCCCN3)c(-c3c(C)ncnc3C)c2)CC1 [Compound 439]
Y

Regarding Cc1ncnc(C)c1-c1cc(NC(=O)C2CCCO2)ccc1OCCN1CCCC1 (centres unmarked) [Compound 230] , kindly confirm whether its Ki is beneath 50 nM.
N

hey, is Ki for Cc1ncnc(C)c1-c1cc(NC(=O)[C@@H]2C[C@@H]2F)ccc1OCCN1CCCC1 [Compound 213] lower than 50 nM or not?
Y

Record Cc1ncnc(C)c1-c1cc(NC(=O)C2CC2)ccc1OCCN(C)CCO [Compound 357] : is its Ki strictly below 50 nM?
Y

###

target_or_system: 5-HT2A (Homo sapiens (Human))
assay_remarks: Radioligand binding assay, [^3H]5-HT competition, 5-HT2A
test_context: [^3H]5-HT radioligand, membranes of HEK293 cells expressing recombinant 5-HT2A; Ki from IC50 by Cheng-Prusoff; read-out: 5-HT2A serotonin binding Ki value
# pKi annotations
Note on pKi: it is the negative log10 of concentration, concentration in mol/L.

Cc1ncnc(C)c1-c1cc(NC(=O)C2(CF)CC2)ccc1OCCN1CCCC1 : 8.07
Cc1ncnc(C)c1-c1cc(NC(=O)c2cccc(F)c2)ccc1OCCN1CCCC1 : 8.57
COCCNCCOc1ccc(NC(=O)c2cccc(F)c2)cc1-c1c(C)ncnc1C : 8.76

pKi of Cc1ncnc(C)c1-c1cc(NC(=O)C2(F)CC2)ccc1OCCN1CCC1 on 5-HT2A (Homo sapiens (Human))?
8.58

Notebook: pull reported pKi for 5-HT2A (Homo sapiens (Human)), entry Cc1ncnc(C)c1-c1cc(NC(=O)c2ccnn2C)ccc1OCCN1CCCC1
8.28

Report pKi for Cc1ncnc(C)c1-c1cc(N(C)C(=O)c2ccnn2C)ccc1OCCN1CCCC1 tested on 5-HT2A (Homo sapiens (Human)).
4.18

# returns recorded pKi (system: 5-HT2A (Homo sapiens (Human))) for Cc1ncnc(C)c1-c1cc(NC(=O)c2ccnn2C)ccc1OCCN1C[C@@H]2C[C@H]1CO2
8.05

Enter reported pKi observed with 5-HT2A (Homo sapiens (Human)) for CCCN(C)CCOc1ccc(NC(=O)C2CC2)cc1-c1c(C)ncnc1C
7.42

###

target_or_system: 5-HT2B (Homo sapiens (Human))
Sequence (P41595 whole entry): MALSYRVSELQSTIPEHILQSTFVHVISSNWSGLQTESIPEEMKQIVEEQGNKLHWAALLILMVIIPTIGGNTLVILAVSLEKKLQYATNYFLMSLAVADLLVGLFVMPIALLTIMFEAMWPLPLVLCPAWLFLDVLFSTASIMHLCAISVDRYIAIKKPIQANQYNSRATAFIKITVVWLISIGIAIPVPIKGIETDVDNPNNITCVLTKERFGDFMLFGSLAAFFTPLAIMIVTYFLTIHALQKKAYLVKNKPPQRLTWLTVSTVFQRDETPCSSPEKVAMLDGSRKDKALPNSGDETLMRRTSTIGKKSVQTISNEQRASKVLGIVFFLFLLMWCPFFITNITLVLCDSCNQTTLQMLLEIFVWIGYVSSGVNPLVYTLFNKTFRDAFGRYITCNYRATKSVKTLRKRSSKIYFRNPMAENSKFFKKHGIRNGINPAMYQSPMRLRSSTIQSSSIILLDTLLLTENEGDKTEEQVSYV
assay_remarks: HTRF IP-One antagonist assay, 5-HT2B;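 also: clonal HEK293 line with low 5-HT2B expression (estimated 150-200 fmol/mg by radioligand binding), IP-One HTRF readout, 10-point curves from 10 µM in 5-fold steps, triplicate points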
test_context: HEK293 cells stably expressing receptor, inositol phosphate accumulation, 80 nM 5-HT in Assay Buffer
Documented pIC50 across a set of molecules
Please note pIC50 is a logarithmic value: minus log10 of concentration in mol/L. Answer with that number alone.

Form field: reported pIC50 of Cc1ncnc(C)c1-c1cc(NC(=O)C2C3COCC32)ccc1OCCN1CCCC1 (centres unmarked) [Compound 232]
4.00

Suppose we examine the molecule Cc1ncnc(C)c1-c1cc(NC(=O)C2(F)CC2)ccc1OCCN1CCCC1 [Compound 233] ; what pIC50 value has been reported?
4.00

Please look up its pIC50: COc1ccc(C(=O)Nc2ccc(OCCN3CCC3)c(-c3c(C)ncnc3C)c2)cc1 [Compound 318]
5.35

Name the reported pIC50 value associated with the molecule Cc1ncnc(C)c1-c1cc(NC(=O)Cc2ccn(C)c2)ccc1OCCN1CCCC1 [Compound 268]
4.00

###

In this section, each of the molecules is paired with its reported Ki.
target_or_system: UniProtKB P28223
assay_remarks: Radioligand binding assay, [^3H]5-HT competition, 5-HT2A
test_context: [^3H]5-HT radioligand, membranes of HEK293 cells expressing recombinant 5-HT2A; Ki from IC50 by Cheng-Prusoff; read-out: 5-HT2A serotonin binding Ki value
Value expressed in nM; do not type the unit.

A selection of reference data follows.
Cc1ncoc1C(=O)Nc1ccc(OCCN2CCOCC2)c(-c2c(C)ncnc2C)c1 : 11.2
Cc1ncnc(C)c1-c1cc(NC(=O)C2CC2)ccc1OCCN1CC2(COC2)C1 : 19.5
Cc1ncnc(C)c1-c1cc(NC(=O)C2CC2)ccc1O[C@H]1CCNC1 : 69.2
Cc1ncnc(C)c1-c1cc(NC(=O)[C@@]23COC[C@@H]2C3)ccc1OCCN1CCCC1 : 16.3
COC1(C(=O)Nc2ccc(OCCN3CCCC3)c(-c3c(C)ncnc3C)c2)CCC1 : 10.1

Suppose we examine the molecule Cc1ncnc(C)c1-c1cc(NC(=O)C2CC2)ccc1O[C@@H]1CCNC1 ; what Ki value has been reported?
24.9

Tell me the measured Ki of Cc1ncnc(C)c1-c1cc(NC(=O)c2cnsc2)ccc1OC[C@H]1CCCCN1 , please.
9.98

Field request: Ki | item: Cc1ncnc(C)c1-c1cc(NC(=O)C2CC2)ccc1O[C@H]1CCCNC1
443

Using the record for Cc1ncnc(C)c1-c1cc(NC(=O)[C@@H]2C[C@H]2F)ccc1OC[C@H]1CCCCN1 , report its Ki.
4.58

# query: Ki of entry Cc1ncnc(C)c1-c1cc(NC(=O)c2cnccc2F)ccc1OCCN1CCC1
23.7

###

Reported pIC50 values follow for various compounds
target_or_system: 5-HT2C (Homo sapiens (Human))
Sequence (P28335 33-458): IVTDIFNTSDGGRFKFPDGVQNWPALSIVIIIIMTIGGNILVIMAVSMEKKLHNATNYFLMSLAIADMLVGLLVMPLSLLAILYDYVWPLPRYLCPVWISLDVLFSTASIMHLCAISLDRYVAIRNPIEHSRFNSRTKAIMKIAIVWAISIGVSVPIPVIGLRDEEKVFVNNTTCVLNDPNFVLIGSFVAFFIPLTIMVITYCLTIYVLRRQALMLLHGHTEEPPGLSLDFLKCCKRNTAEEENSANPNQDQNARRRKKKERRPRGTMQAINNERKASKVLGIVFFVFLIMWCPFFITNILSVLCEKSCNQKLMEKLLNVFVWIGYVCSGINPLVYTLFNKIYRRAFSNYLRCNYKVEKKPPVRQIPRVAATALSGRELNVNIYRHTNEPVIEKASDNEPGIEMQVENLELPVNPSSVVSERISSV
assay_remarks: HTRF IP-One antagonist assay, 5-HT2C
test_context: HEK293 cells stably expressing receptor, inositol phosphate accumulation, 80 nM 5-HT in Assay Buffer
# log scale: pIC50 equals minus log10 of the concentration in mol/L

Answered examples (2):
Cc1ncnc(C)c1-c1cc(NC(=O)C2C3COCC32)ccc1OCCN1CCCC1 (stereo not drawn) : 4.00
Cc1ncnc(C)c1-c1cc(NC(=O)c2c(F)cnn2C)ccc1OCCN1CCCC1 : 4.00

The record that follows has no pIC50 shown yet.
I would be grateful if you could share the reported pIC50 for COC1(C(=O)Nc2ccc(OCCN3CCCC3)c(-c3c(C)ncnc3C)c2)CC1 .
4.00

###

target_or_system: 5-HT2A (Homo sapiens (Human), UniProt P28223)
Sequence (P28223 whole entry): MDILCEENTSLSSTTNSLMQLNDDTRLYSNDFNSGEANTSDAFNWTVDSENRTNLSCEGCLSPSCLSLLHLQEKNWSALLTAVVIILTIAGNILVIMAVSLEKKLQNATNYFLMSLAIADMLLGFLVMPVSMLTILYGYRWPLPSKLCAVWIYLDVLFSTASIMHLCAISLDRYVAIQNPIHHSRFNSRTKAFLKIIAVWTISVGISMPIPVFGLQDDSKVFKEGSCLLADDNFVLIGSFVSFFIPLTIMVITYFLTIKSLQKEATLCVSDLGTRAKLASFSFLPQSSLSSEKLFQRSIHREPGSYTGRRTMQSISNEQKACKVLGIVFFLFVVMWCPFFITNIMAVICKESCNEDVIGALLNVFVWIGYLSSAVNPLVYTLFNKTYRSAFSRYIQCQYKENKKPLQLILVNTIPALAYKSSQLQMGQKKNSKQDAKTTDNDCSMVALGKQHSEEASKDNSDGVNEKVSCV
assay_remarks: HTRF IP-One antagonist assay, 5-HT2A;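 also: clonal line with low receptor density (about 50–70 fmol/mg), 10-point dose-response from 10 µM in 5-fold steps, HTRF detection after 1 hr, triplicate points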
test_context: HEK293 cells stably expressing receptor, inositol phosphate accumulation, 80 nM 5-HT in Assay Buffer
Parameter IC50: see the listing below.
Lab book: enter the figure in nM, no units written.

CCOC1CC1C(=O)Nc1ccc(OC[C@H]2CCCCN2)c(-c2c(C)ncnc2C)c1 (stereo partly shown) [Compound 447] : 9.05
COc1cccc(C(=O)Nc2ccc(OCCN3CCCC3)c(-c3c(C)ncnc3C)c2)c1 [Compound 273] : 1.68
Cc1ncnc(C)c1-c1cc(NC(=O)C2(CF)CC2)ccc1OCCN1CCCC1 [Compound 293] : 15.9

We next turn to a different compound, shown below.
Item Cc1ncoc1C(=O)Nc1ccc(OCCN2CCCC2)c(-c2c(C)ncnc2C)c1 [Compound 217] has what recorded IC50?
18.5
